- experimental_system: UniProt:P25025
- Sequence (P25025 whole entry): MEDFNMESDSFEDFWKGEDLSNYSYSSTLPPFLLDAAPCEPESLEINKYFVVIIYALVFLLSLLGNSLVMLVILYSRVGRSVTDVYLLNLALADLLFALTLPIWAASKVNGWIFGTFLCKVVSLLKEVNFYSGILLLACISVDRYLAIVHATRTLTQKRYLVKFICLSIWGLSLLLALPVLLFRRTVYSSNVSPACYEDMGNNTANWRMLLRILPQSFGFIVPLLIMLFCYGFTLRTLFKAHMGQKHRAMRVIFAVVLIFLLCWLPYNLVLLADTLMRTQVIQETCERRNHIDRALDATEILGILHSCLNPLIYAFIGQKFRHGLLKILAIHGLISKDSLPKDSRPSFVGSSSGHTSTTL
- Type: cell membranes, Membrane
- run_conditions: cho-k1
endpoint: IC50

compound	result
NNCCc1ccccc1 [PHENELZINE]	Not Active
O=C(O)CCNC(=O)c1ccc(/N=N/c2ccc(O)c(C(=O)O)c2)cc1 [BALSALAZIDE]	Not Active
COc1cc(OC)c(C(=O)CCCN2CCCC2)c(OC)c1 [BUFLOMEDIL]	Not Active
Oc1ccc2c3c1O[C@H]1[C@@H](O)CC[C@@]4(O)[C@@H](C2)N(CC2CCC2)CC[C@]314 [NALBUPHINE]	Not Active
CS(=O)(=O)Nc1ccc([N+](=O)[O-])cc1Oc1ccccc1 [NIMESULIDE]	Not Active

Name the value of IC50 reported for COC(=O)[C@H]1[C@H]2C[C@@H]3c4[nH]c5cc(OC)ccc5c4CCN3C[C@H]2C[C@@H](OC(=O)c2cc(OC)c(OC)c(OC)c2)[C@@H]1OC [RESERPINE] when tested on UniProt:P25025.
Not Active

Enter IC50 (test system UniProt:P25025) for C[C@H]1COc2c(N3CCN(C)CC3)c(F)cc3c(=O)c(C(=O)O)cn1c23.C[C@H]1COc2c(N3CCN(C)CC3)c(F)cc3c(=O)c(C(=O)O)cn1c23.O [LEVOFLOXACIN]
Not Active

Please report IC50 with UniProt:P25025 for item CN1[C@@H]2CC[C@H]1C[C@@H](OC(c1ccccc1)c1ccccc1)C2 [BENZTROPINE] .
Not Active

// fetch IC50; item: O=C1C[C@@H]2OCC=C3CN4CC[C@]56c7ccccc7N1[C@H]5[C@H]2[C@H]3C[C@H]46 [STRYCHNINE] ; system: UniProt:P25025
Not Active

Send back UniProt:P25025 IC50 of CO/N=C(\C(=O)N[C@@H]1C(=O)N2C(C(=O)O)=C(COC(C)=O)CS[C@H]12)c1csc(N)n1 [CEFOTAXIME] only.
Not Active

Find the measured IC50 of CN1CCC(=C2c3ccccc3CC(=O)c3sccc32)CC1 [KETOTIFEN] with UniProt:P25025 as test system.
Not Active

Provide IC50, recorded with UniProt:P25025, of O=C(O)c1cc(-c2ccc(F)cc2F)ccc1O [DIFLUNISAL]
Not Active

Provide IC50, tested on UniProt:P25025, for CCCNC(=O)NS(=O)(=O)c1ccc(Cl)cc1 [CHLORPROPAMIDE] .
Not Active

Write IC50 of O=c1c(-c2ccc(O)cc2)coc2cc(O)cc(O)c12 [GENISTEIN] ; system used: UniProt:P25025
Not Active

With UniProt:P25025 as the test system, provide measured IC50 for this compound: N=C(N)c1ccc(OCCCCCOc2ccc(C(=N)N)cc2)cc1 [PENTAMIDINE]
Not Active

Write down the reported IC50 (system: UniProt:P25025) of O=C(O)CCCCC1CCSS1 (stereo not drawn) [LIPOIC ACID, ALPHA]
Not Active

###

- experimental_protocol: DRUGMATRIX: Phosphodiesterase PDE4 enzyme inhibition (substrate: [3H]cAMP + cAMP)
- run_conditions: u-937; Not Active = under 50% inhibition at 10 µM
endpoint: Ki

compound	result
O=C(O)COc1ccc(C(=O)c2cccs2)c(Cl)c1Cl	Not Active
CCCNC(=O)NS(=O)(=O)c1ccc(Cl)cc1 [CHLORPROPAMIDE]	Not Active
CN(C)C(=O)Oc1cccc([N+](C)(C)C)c1.[Br-] [NEOSTIGMINE BROMIDE]	Not Active
CC(=O)OCC(=O)[C@@]1(O)CC[C@H]2[C@@H]3CCC4=CC(=O)CC[C@]4(C)[C@@]3(F)[C@@H](O)C[C@@]21C [FLUDROCORTISONE ACETATE]	Not Active
CN1CCCC(CN2c3ccccc3Sc3ccccc32)C1 (stereo not drawn) [MEPAZINE]	Not Active
CC(=O)OC[C@H]1O[C@@H](n2ncc(=O)[nH]c2=O)[C@H](OC(C)=O)[C@@H]1OC(C)=O [AZARIBINE]	Not Active
CO/N=C(\C(=O)N[C@@H]1C(=O)N2C(C(=O)O)=C(COC(C)=O)CS[C@H]12)c1csc(N)n1 [CEFOTAXIME]	Not Active

// next item, Ki requested
Specify Ki for CCCCCCCCNC(C)C(O)c1ccc(SC(C)C)cc1 (stereo not drawn) [SULOCTIDIL] and stop.
Not Active
